System: THP-1
Test: THP-1 cell loss relative to DMSO control; higher = more host cell loss (toxicity); extreme values may be limits of the assay
Settings: 10 µM; 4 days; infection: M. tuberculosis H37Rv
PROPERTY MEASURED: THP-1 cell loss (%)
Write the value in % as a bare number.

Solved entries:
compound="Oc1ccc(Nc2nc(-c3ccc(Cl)cc3)cs2)cc1 [2-(p-Hydroxyanilino)-4-(p-chlorophenyl) thiazole]" property_measured="THP-1 cell loss" unit_tag=% recorded_measurement=100
compound=c1cc(OCCN2CCCCC2)cc(-c2n[nH]c3ccc(-c4nnc[nH]4)cc23)c1 property_measured="THP-1 cell loss" unit_tag=% recorded_measurement=3.37
compound="CC(NC(=O)C(C#N)=Cc1ccc(O)c(O)c1)c1ccccc1 (stereo not given)" property_measured="THP-1 cell loss" unit_tag=% recorded_measurement=3.72
compound=CNC(=O)c1cc(Oc2ccc(NC(=O)Nc3ccc(Cl)c(C(F)(F)F)c3)cc2)ccn1 property_measured="THP-1 cell loss" unit_tag=% recorded_measurement=100
compound=CN1CCC(COc2cnc(-c3cccc(Cn4nc(-c5cccc(C#N)c5)ccc4=O)c3)nc2)CC1 property_measured="THP-1 cell loss" unit_tag=% recorded_measurement=90.4
compound=Nc1nccc(Oc2ccc(NC(=O)c3c[nH]cc(-c4ccc(F)cc4)c3=O)cc2F)c1Cl property_measured="THP-1 cell loss" unit_tag=% recorded_measurement=48.1

Kindly consider the entry below.
// lookup THP-1 cell loss | system=THP-1 | key= COc1nccc(-c2c(-c3ccc(F)cc3)ncn2C2CCC(O)CC2)n1 (stereo not given)
1.08

Taken from the supplement of paper PMC7530171.
